Test name: Clinical study of single oral doses of 5-azacytidine (oral formulation of Example 3): PK, bioavailability, safety
Format: in vivo, human
Conditions: human, plasma, oral, 80 mg, Subject 201; 80 mg single oral dose; SC reference dose = 135 mg, AUC = 777 ng · h/mL; read-out: F, percent bioavailability compared with historical SC azacitidine data
Recorded endpoint: bioavailability (%)

In [3]: df
Out[3]:
                                   molecule  u  recorded_number
0  Nc1ncn([C@@H]2O[C@H](CO)[C@@H](O)[C@H]2O)c(=O)n1  %               24

----------
Test name: Clinical study of single oral doses of 5-azacytidine (oral formulation of Example 3): PK, bioavailability, safety
Type: in vivo, human
Conditions: human, plasma, po, 80 mg, Mean (n = 3); 80 mg single oral dose (Example 3 tablets)
Recorded endpoint: Cmax (ng/mL)

>>> df
                                   molecule  recorded_endpoint      u  recorded_number
0  Nc1ncn([C@@H]2O[C@H](CO)[C@@H](O)[C@H]2O)c(=O)n1               Cmax  ng/mL             53.2

----------
Test name: Clinical study of single oral doses of 5-azacytidine (oral formulation of Example 3): PK, bioavailability, safety
Format: in vivo, human
Conditions: human, plasma, po, 80 mg, Mean of 80 mg dose group (n=3); single oral dose (Example 3 tablets); 0 h; read-out: Mean plasma concentration
Recorded endpoint: concentration at 0 h (ng/mL)

>>> df
                                   molecule      u  recorded_number
0  Nc1ncn([C@@H]2O[C@H](CO)[C@@H](O)[C@H]2O)c(=O)n1  ng/mL                0

----------
Test name: Clinical study of single oral doses of 5-azacytidine (oral formulation of Example 3): PK, bioavailability, safety
Format: in vivo, human
Conditions: human, plasma, po, 80 mg, Mean of 80 mg dose group (n=3); single oral dose (Example 3 tablets); 3.0 h; read-out: Mean plasma concentration
Recorded endpoint: concentration at 3 h

In [3]: df
Out[3]:
                                   compound     recorded_endpoint     result
0  Nc1ncn([C@@H]2O[C@H](CO)[C@@H](O)[C@H]2O)c(=O)n1 [5-azacytidine]  concentration at 3 h  6.3 ng/mL

----------
Test name: Clinical study of single oral doses of 5-azacytidine (oral formulation of Example 3): PK, bioavailability, safety
Format: in vivo, human
Conditions: human, plasma, po, 80 mg, Subject 201; 80 mg single oral dose (Example 3 tablets); 4.5 h
Recorded endpoint: concentration at 4.5 h (ng/mL)

>>> df
                                   molecule  recorded_number
0  Nc1ncn([C@@H]2O[C@H](CO)[C@@H](O)[C@H]2O)c(=O)n1             1.19

----------
Test name: Clinical study of single oral doses of 5-azacytidine (oral formulation of Example 3): PK, bioavailability, safety
Assay type: in vivo, human
Conditions: human, plasma, po, 80 mg, Subject 201; 80 mg single oral dose (Example 3 tablets); 2.5 h; read-out: Plasma concentration
Recorded endpoint: concentration at 2.5 h (ng/mL)

>>> df
                                   molecule  recorded_number
0  Nc1ncn([C@@H]2O[C@H](CO)[C@@H](O)[C@H]2O)c(=O)n1             36.4

----------
Test name: Caco 2 monolayer permeability of 5-azacytidine with and without excipients
Format: in vitro ADME
Conditions: human, Caco-2, pH 7.4, with Sodium Laurate 0.1%; high permeability due to toxic effects of sodium laurate on Caco 2 cells
Recorded endpoint: Papp at 1000 micromolar (×10⁻⁶ cm/s)

                                   molecule        recorded_endpoint  recorded_number
0  Nc1ncn([C@@H]2O[C@H](CO)[C@@H](O)[C@H]2O)c(=O)n1 [5-azacytidine]  Papp at 1000 micromolar             15.8

----------
Test name: Clinical study of single oral doses of 5-azacytidine (oral formulation of Example 3): PK, bioavailability, safety
Assay type: in vivo, human
Conditions: human, plasma, po, 80 mg, Subject 202; 80 mg single oral dose (Example 3 tablets); 2.0 h; read-out: Plasma concentration
Recorded endpoint: concentration at 2 h

                                   molecule      result
0  Nc1ncn([C@@H]2O[C@H](CO)[C@@H](O)[C@H]2O)c(=O)n1  24.5 ng/mL

----------
Test name: Caco 2 monolayer permeability of 5-azacytidine with and without excipients
Format: in vitro ADME
Conditions: human, Caco-2, pH 7.4, with Sodium Laurate 0.01%
Description: The Caco-2 cells are an intestinal epithelial cell line (human colon adenocarcinoma established from the primary colon tumor (adenocarcinoma)) Monolayers of Caco-2 cells are used to classify the intestinal absorption potential of a drug candidate molecule. The assay was carried out in accordance with P. Artursson and J. Karlsson, “Correlation between Oral Drug Absorption in Humans and Apparent Drug Permeability Coefficients in Human Intestinal Epithelial (Caco-2) Cells”, Biochem. Biophys. […]
Recorded endpoint: Papp at 1000 micromolar (×10⁻⁶ cm/s)

                                   molecule        recorded_endpoint  recorded_number
0  Nc1ncn([C@@H]2O[C@H](CO)[C@@H](O)[C@H]2O)c(=O)n1  Papp at 1000 micromolar             0.19

----------
Test name: Caco 2 monolayer permeability of 5-azacytidine with and without excipients
Assay type: in vitro ADME
Conditions: human, Caco-2, pH 7.4, with Labrafil 0.05%
Recorded endpoint: Papp at 1000 micromolar (×10⁻⁶ cm/s)

In [3]: df
Out[3]:
                                   molecule  recorded_number
0  Nc1ncn([C@@H]2O[C@H](CO)[C@@H](O)[C@H]2O)c(=O)n1             0.38

----------
Test name: Clinical study of single oral doses of 5-azacytidine (oral formulation of Example 3): PK, bioavailability, safety
Type: in vivo, human
Conditions: human, plasma, po, 80 mg, Mean of 80 mg dose group (n=3); single oral dose (Example 3 tablets); 2.0 h; read-out: Mean plasma concentration
Recorded endpoint: concentration at 2 h (ng/mL)

>>> df
                                   molecule     recorded_endpoint  recorded_number
0  Nc1ncn([C@@H]2O[C@H](CO)[C@@H](O)[C@H]2O)c(=O)n1  concentration at 2 h             36.9

----------
Test name: Clinical study of single oral doses of 5-azacytidine (oral formulation of Example 3): PK, bioavailability, safety
Type: in vivo, human
Conditions: human, plasma, po, 80 mg, Mean (n = 3); 80 mg single oral dose (Example 3 tablets)
Recorded endpoint: Tmax (h)

                                   molecule  recorded_number
0  Nc1ncn([C@@H]2O[C@H](CO)[C@@H](O)[C@H]2O)c(=O)n1              1.5

----------
Test name: Clinical study of single oral doses of 5-azacytidine (oral formulation of Example 3): PK, bioavailability, safety
Type: in vivo, human
Conditions: human, plasma, po, 60 mg, Subject 101; 60 mg single oral dose (Example 3 tablets)
Recorded endpoint: Tmax (h)

                                   molecule  recorded_endpoint  u  recorded_number
0  Nc1ncn([C@@H]2O[C@H](CO)[C@@H](O)[C@H]2O)c(=O)n1               Tmax  h                3

----------
Test name: Clinical study of single oral doses of 5-azacytidine (oral formulation of Example 3): PK, bioavailability, safety
Assay type: in vivo, human
Conditions: human, plasma, po, 80 mg, Subject 102; 80 mg single oral dose (Example 3 tablets)
Recorded endpoint: half-life (min)

                                   molecule    u  recorded_number
0  Nc1ncn([C@@H]2O[C@H](CO)[C@@H](O)[C@H]2O)c(=O)n1  min             20.2

----------
Test name: Clinical study of single oral doses of 5-azacytidine (oral formulation of Example 3): PK, bioavailability, safety
Assay type: in vivo, human
Conditions: human, plasma, po, 80 mg, Subject 201; 80 mg single oral dose (Example 3 tablets); 1.0 h; read-out: Plasma concentration
Recorded endpoint: concentration at 1 h (ng/mL)

>>> df
                                   molecule      u  recorded_number
0  Nc1ncn([C@@H]2O[C@H](CO)[C@@H](O)[C@H]2O)c(=O)n1  ng/mL             31.5

----------
Test name: Caco 2 monolayer permeability of 5-azacytidine with and without excipients
Type: in vitro ADME
Conditions: human, Caco-2, pH 7.4, with Labrafil 0.01%
Recorded endpoint: Papp at 1000 micromolar (nm/s)

>>> print(df.to_string())
                                   molecule     u  recorded_number
0  Nc1ncn([C@@H]2O[C@H](CO)[C@@H](O)[C@H]2O)c(=O)n1  nm/s              2.3
